# tested-on: HLA-A02.01 (human)
# measurement-description: pMHC-I dissociation half-life, 125I-b2m
# condition-summary: remark: other sources report otherwise
Answer each item with its documented Stability (T1/2 (h)).
Write the number in h without appending the unit.

Give the value of Stability (T1/2 (h)) reported for the following: MALNSEALSV
0.7

Determine its reported Stability (T1/2 (h)): NQRPILTII
0

Look up Stability (T1/2 (h)) of WMTETLFDIV and report it.
0.4

Report Stability (T1/2 (h)), nothing else, for this binder: GMNWRPILTI
0.5

Consider the binder TQLARFFPI . State its measured Stability (T1/2 (h)).
0

Give recorded Stability (T1/2 (h)). CMGSMNRRPI
0

Give reported Stability (T1/2 (h)) value for SMNRRPILTI
0.3

Answer with reported Stability (T1/2 (h)) of WMTETLFDI
4
